System under test: angiotensin-converting enzyme (ACE) (Oryctolagus cuniculus, UniProt P12822)
Sequence (P12822 34-1310): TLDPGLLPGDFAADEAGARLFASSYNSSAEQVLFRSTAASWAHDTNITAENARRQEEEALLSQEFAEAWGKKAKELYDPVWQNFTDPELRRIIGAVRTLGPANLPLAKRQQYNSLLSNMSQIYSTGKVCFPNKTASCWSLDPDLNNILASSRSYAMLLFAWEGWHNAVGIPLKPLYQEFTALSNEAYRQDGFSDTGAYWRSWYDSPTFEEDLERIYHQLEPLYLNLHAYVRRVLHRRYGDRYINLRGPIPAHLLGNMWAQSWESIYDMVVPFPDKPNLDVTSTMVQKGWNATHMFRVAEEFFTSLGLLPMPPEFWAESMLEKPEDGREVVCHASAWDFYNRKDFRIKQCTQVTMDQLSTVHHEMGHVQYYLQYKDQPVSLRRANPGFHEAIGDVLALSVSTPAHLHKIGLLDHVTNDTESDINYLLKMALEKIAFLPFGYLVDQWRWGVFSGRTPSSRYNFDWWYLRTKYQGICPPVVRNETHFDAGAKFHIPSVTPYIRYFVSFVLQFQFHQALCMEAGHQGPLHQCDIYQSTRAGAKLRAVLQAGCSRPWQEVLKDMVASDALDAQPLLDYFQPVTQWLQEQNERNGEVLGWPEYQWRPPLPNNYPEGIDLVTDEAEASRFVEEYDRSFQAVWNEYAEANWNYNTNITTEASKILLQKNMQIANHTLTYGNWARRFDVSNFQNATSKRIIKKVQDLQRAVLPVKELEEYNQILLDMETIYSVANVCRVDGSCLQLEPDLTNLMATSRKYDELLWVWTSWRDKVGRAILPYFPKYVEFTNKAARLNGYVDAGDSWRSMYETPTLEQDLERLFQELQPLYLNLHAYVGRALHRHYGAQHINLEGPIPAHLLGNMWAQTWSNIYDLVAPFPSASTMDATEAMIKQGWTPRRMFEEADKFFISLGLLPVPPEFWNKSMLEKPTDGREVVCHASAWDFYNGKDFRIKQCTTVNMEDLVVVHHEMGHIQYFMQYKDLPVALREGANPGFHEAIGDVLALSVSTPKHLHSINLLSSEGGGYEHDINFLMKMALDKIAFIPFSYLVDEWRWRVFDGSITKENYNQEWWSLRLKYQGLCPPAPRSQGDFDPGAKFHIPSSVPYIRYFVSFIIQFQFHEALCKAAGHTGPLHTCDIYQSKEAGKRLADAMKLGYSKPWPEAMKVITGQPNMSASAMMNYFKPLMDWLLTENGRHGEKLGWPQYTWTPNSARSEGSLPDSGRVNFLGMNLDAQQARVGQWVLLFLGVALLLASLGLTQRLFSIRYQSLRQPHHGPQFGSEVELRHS
Method notes: in vitro inhibition of angiotensin-converting enzyme (ACE)
Format: biochemical
Particulars: hippuryl-histidyl-leucine substrate, pH 8.3, 37° C., 30 minutes; read-out: IC50 in the ACE in vitro assay
Method: In vitro testing is most appropriate for the free carboxylic acids of the invention. The test compound is dissolved in dimethyl sulfoxide, ethanol, or 0.25 M sodium bicarbonate solution, and the solution is diluted with buffer to the desired concentration. The buffer for the ACE assay is 300 mM NaCl, 100 mM KH2 PO4 (pH 8.3). […] The tubes are centrifuged and the supernatant optical density is read at 360 nm.
Observation type: IC50

Asked: Which value of IC50 has been reported for "CC(C)[C@H](S)C(=O)NC1(C(=O)N[C@@H](Cc2ccc(O)cc2)C(=O)O)CCCC1" in the records?
Given back: ~7 nM

###

System under test: neutral endopeptidase (NEP, EC 3.4.24.11) (Rattus norvegicus)
Construct: rat kidney cortex membranes prepared by method of Maeda; from tissue; host or cells: rat kidney cortex membranes
Sequence (P07861 1-750): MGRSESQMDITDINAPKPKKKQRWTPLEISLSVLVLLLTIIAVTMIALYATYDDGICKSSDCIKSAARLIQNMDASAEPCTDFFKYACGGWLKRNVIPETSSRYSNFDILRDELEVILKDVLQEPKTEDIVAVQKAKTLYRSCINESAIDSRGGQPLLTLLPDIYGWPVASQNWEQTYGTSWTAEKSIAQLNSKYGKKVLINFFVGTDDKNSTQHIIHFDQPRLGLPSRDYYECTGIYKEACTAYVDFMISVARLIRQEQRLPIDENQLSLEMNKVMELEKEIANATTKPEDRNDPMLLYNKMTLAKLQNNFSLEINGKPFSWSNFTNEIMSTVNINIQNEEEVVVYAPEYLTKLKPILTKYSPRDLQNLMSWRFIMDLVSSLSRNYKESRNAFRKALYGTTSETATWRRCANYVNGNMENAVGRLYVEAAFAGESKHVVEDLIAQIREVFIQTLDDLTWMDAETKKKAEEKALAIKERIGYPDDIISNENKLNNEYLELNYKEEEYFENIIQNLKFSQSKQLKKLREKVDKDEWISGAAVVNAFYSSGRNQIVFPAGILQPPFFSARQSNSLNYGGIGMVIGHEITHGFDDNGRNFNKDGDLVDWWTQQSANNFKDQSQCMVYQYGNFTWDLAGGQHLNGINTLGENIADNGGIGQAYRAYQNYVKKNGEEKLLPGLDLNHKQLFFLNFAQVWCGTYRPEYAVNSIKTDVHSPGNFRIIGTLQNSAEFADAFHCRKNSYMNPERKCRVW
Method notes: in vitro inhibition of neutral endopeptidase (GAAP assay)
Assay type: biochemical
Particulars: GAAP 500 μM, rat kidney cortex membranes, pH 7.4, 25° C., 10 minutes
pIC50: −log10 of the molar value.
Observation type: pIC50

Asked: I'd like to know its pIC50. The compound in question is "COc1ccc(C[C@H](NC(=O)C2(NC(=O)[C@@H](S)C(C)C)CCCC2)C(=O)O)cc1"
Given back: ~8.66

The values you see were collected from patent US5506244A.
